Reported cell viability by item:
system: Vero E6; assay: cell viability relative to DMSO; higher = less toxic; conditions: 72 h; 10000 nM
Form entry: value (%) — number only.

Illustrative cases are given below, each with its answer.
Input line: Would you mind telling me what cell viability value was observed for `O=S1(=O)CCN(CN2CCS(=O)(=O)NC2)CN1` ?
Output line: 99.4

Input line: Would you mind telling me what cell viability value was observed for `O=c1[nH]c2ccccc2n1CCCN1CCC(n2c(=O)[nH]c3cc(Cl)ccc32)CC1` ?
Output line: 89

Input line: Would you mind telling me what cell viability value was observed for `O=C(O)c1ccc(/C=C2\SC(=S)N(c3cccc(C(F)(F)F)c3)C2=O)cc1` ?
Output line: 107

Input line: Would you mind telling me what cell viability value was observed for `CCCCCCCCCCCCC/C=C/[C@@H](O)[C@@H](N)CO[P@](=O)(O)OCC[N+](C)(C)C` ?
Output line: 109

Input line: Would you mind telling me what cell viability value was observed for `C[C@H]1NCc2cc(-c3ccc4c(=O)c(C(=O)O)cn(C5CC5)c4c3OC(F)F)ccc21` ?
Output line: 104

Others:
Input line: Would you mind telling me what cell viability value was observed for `CC[C@@](C)(Nc1ccnc(-c2c[nH]c3ncccc23)n1)C(=O)NCC(F)(F)F` ?
Output line: 107

Input line: Would you mind telling me what cell viability value was observed for Nc1nc(=O)c2c([nH]1)NCC(CNc1ccc(C(=O)N[C@@H](CCC(=O)O)C(=O)O)cc1)N2C=O (stereo not given in full) ?
Output line: 101

Input line: Would you mind telling me what cell viability value was observed for `CC#C[C@]1(O)CC[C@H]2[C@@H]3CCC4=CC(=O)CCC4=C3[C@@H](c3ccc(N(C)C)cc3)C[C@@]21C` ?
Output line: 97.6

Input line: Would you mind telling me what cell viability value was observed for CN1CCCN(C(c2ccccc2)c2ccc(Cl)cc2)CC1 (stereo not given) ?
Output line: 102

Input line: Would you mind telling me what cell viability value was observed for `CC(C)(C)c1cc(C(=O)/C(C#N)=N/Nc2cccc(Cl)c2)no1` ?
Output line: 83.3

---

Reported cell viability by item:
test system: Caco-2; test: cell viability relative to DMSO; higher = less toxic; conditions: 72 h; 10000 nM
Record the result as number plus unit.

Input line: Would you mind telling me what cell viability value was observed for Cc1ccc(O)c(N=Nc2ccccc2)n1 [SIB-1757] ?
Output line: 86.2%

Input line: Would you mind telling me what cell viability value was observed for CN(C)NC(=O)CCC(=O)O [daminozide] ?
Output line: 100%

We now examine a further compound.
Input line: Would you mind telling me what cell viability value was observed for COC(=O)[C@H](CC(C)C)NC(=O)c1ccc(NC[C@@H](N)CS)cc1-c1cccc2ccccc12 [GGTI-298] ?
Output line: 75.9%

---

test system: Vero E6; experiment: cell viability relative to DMSO; higher = less toxic; conditions: 72 h; 1000 nM
Reported cell viability by item:
Form entry: value (%) — number only.

Illustrative cases are given below, each with its answer.
Input line: Would you mind telling me what cell viability value was observed for `NCCS` ?
Output line: 94.8

Input line: Would you mind telling me what cell viability value was observed for `CCc1nc(N)nc(N)c1-c1ccc(Cl)cc1` ?
Output line: 99.9

Input line: Would you mind telling me what cell viability value was observed for C=CCN1CCc2nc(N)sc2CC1 [talipexole] ?
Output line: 100

Input line: Would you mind telling me what cell viability value was observed for `COc1cc2nccc(Oc3ccc(NC(=O)NC4CC4)c(Cl)c3)c2cc1C(N)=O` ?
Output line: 99.1

Input line: Would you mind telling me what cell viability value was observed for O=c1[nH]cnc2c1cnn2[C@@H]1O[C@H](CO)[C@@H](O)[C@H]1O [allopurinol-riboside] ?
Output line: 103

Others:
Input line: Would you mind telling me what cell viability value was observed for `COc1c2occc2c(OC)c2c(=O)cc(C)oc12` ?
Output line: 99.7

Input line: Would you mind telling me what cell viability value was observed for `Cc1nc2ccccn2c(=O)c1CCN1CCC(C(=O)c2ccc(F)cc2)CC1` ?
Output line: 100

Input line: Would you mind telling me what cell viability value was observed for `CC(C)c1onc(-c2c(Cl)cccc2Cl)c1COc1ccc(/C=C/c2cccc(C(=O)O)c2)c(Cl)c1` ?
Output line: 93.8

Input line: Would you mind telling me what cell viability value was observed for `COCCOCCOc1ccc(C2=N[C@@](C)(C(=O)O)CS2)c(O)c1` ?
Output line: 105

Input line: Would you mind telling me what cell viability value was observed for `N#Cc1ccc(Cn2cncc2CN2CCN(c3cccc(Cl)c3)C(=O)C2)cc1` ?
Output line: 99.9

Input line: Would you mind telling me what cell viability value was observed for `O=C(O)CCCC[C@@H]1CCSS1` ?
Output line: 86.5

Input line: Would you mind telling me what cell viability value was observed for `CC#C[C@]1(O)CC[C@H]2[C@@H]3CCC4=CC(=O)CCC4=C3[C@@H](c3ccc(N(C)C)cc3)C[C@@]21C` ?
Output line: 96.8

Input line: Would you mind telling me what cell viability value was observed for `CCCCCOc1c(OC)ccc2cc(C(=O)NCc3ccc4c(c3)OCO4)c(=O)[nH]c12` ?
Output line: 94.3
